# condition_summary: 120 min, 5 µM
observable: Rat Plasma Prodrug (%)

>>> test_value("COCCOCCC(=O)OC1=C[C@@H]2N(C)CC[C@]2(c2ccc(OC)c(OC)c2)CC1")
"0.0%"
>>> test_value("CCC(C)(C)C(=O)OC1=C[C@@H]2N(C)CC[C@]2(c2ccc(OC)c(OC)c2)CC1")
"18.1%"
>>> test_value("CCC(C)C(=O)OC1=C[C@@H]2N(C)CC[C@]2(c2ccc(OC)c(OC)c2)CC1 (stereo partly drawn)")
"0.0%"
>>> test_value("COc1ccc([C@@]23CCC(OC(=O)CC(C)(C)C)=C[C@@H]2N(C)CC3)cc1OC")
"2.3%"
>>> test_value("COCCCCC(=O)OC1=C[C@@H]2N(C)CC[C@]2(c2ccc(OC)c(OC)c2)CC1")
"0.3%"
>>> test_value("CCCC(CC)CC(=O)OC1=C[C@@H]2N(C)CC[C@]2(c2ccc(OC)c(OC)c2)CC1 (stereo partly drawn)")
"0.0%"
>>> test_value("CCCC(C)(C)C(=O)OC1=C[C@@H]2N(C)CC[C@]2(c2ccc(OC)c(OC)c2)CC1")
"50.8%"
>>> test_value("COc1ccc([C@@]23CCC(OC(=O)c4c(C)cc(C)cc4C)=C[C@@H]2N(C)CC3)cc1OC")
">99%"
>>> test_value("CCC(CC)C(=O)OC1=C[C@@H]2N(C)CC[C@]2(c2ccc(OC)c(OC)c2)CC1")
"0.9%"
>>> test_value("CCCCCC(C)C(=O)OC1=C[C@@H]2N(C)CC[C@]2(c2ccc(OC)c(OC)c2)CC1 (stereo partly drawn)")
"0.1%"
>>> test_value("CCCCC(CC)C(=O)OC1=C[C@@H]2N(C)CC[C@]2(c2ccc(OC)c(OC)c2)CC1 (stereo partly drawn)")
"16.3%"
>>> test_value("COc1ccc([C@@]23CCC(OC(=O)c4c(C)cccc4C)=C[C@@H]2N(C)CC3)cc1OC")
"98.4%"
>>> test_value("COc1ccc([C@@]23CCC(OC(=O)c4ccc(C(C)C)cc4)=C[C@@H]2N(C)CC3)cc1OC")
"0.0%"
>>> test_value("CCCC(CCC)C(=O)OC1=C[C@@H]2N(C)CC[C@]2(c2ccc(OC)c(OC)c2)CC1")
"16.0%"
>>> test_value("CCCCCCCC(=O)OC1=C[C@@H]2N(C)CC[C@]2(c2ccc(OC)c(OC)c2)CC1")
"0.1%"
>>> test_value("CCC(C)(CC)C(=O)OC1=C[C@@H]2N(C)CC[C@]2(c2ccc(OC)c(OC)c2)CC1")
"94.1%"
>>> test_value("COc1ccc([C@@]23CCC(OC(=O)c4cccc(C)c4)=C[C@@H]2N(C)CC3)cc1OC")
"0.0%"
>>> test_value("COc1ccc([C@@]23CCC(OC(=O)CCC(C)C)=C[C@@H]2N(C)CC3)cc1OC")
"0.0%"
>>> test_value("COc1ccc([C@@]23CCC(OC(=O)CCN)=C[C@@H]2N(C)CC3)cc1OC")
"0.1%"
>>> test_value("CCCC(C)C(=O)OC1=C[C@@H]2N(C)CC[C@]2(c2ccc(OC)c(OC)c2)CC1 (stereo partly drawn)")
"0.0%"
>>> test_value("COc1ccc([C@@]23CCC(OC(=O)c4cccc(C)c4C)=C[C@@H]2N(C)CC3)cc1OC")
"5.2%"

---

# test_name: Plasma Stability Assay of Example A3, human plasma
# condition_summary: % of prodrug compound remaining, 37° C., 30 min
# Human Plasma Prodrug (%) per entry
observable: Human Plasma Prodrug (%)

>>> test_value("COc1ccc([C@@]23CCC(OC(=O)c4ccc(C(C)C)cc4)=C[C@@H]2N(C)CC3)cc1OC")
92
>>> test_value("C=C(C)C(=O)OC1=C[C@@H]2N(C)CC[C@]2(c2ccc(OC)c(OC)c2)CC1")
2.3
>>> test_value("COc1ccc([C@@]23CCC(OC(=O)c4c(C)cccc4C)=C[C@@H]2N(C)CC3)cc1OC")
99

---

# condition_summary: 60 min, 5 µM
# Human Plasma Prodrug (%) per entry
observable: Human Plasma Prodrug (%)

>>> test_value("CCCC(CC)CC(=O)OC1=C[C@@H]2N(C)CC[C@]2(c2ccc(OC)c(OC)c2)CC1 (some centres unmarked)")
72.4
>>> test_value("COc1ccc([C@@]23CCC(OC(=O)c4cccc(C)c4C)=C[C@@H]2N(C)CC3)cc1OC")
94.8
>>> test_value("COCCOCCC(=O)OC1=C[C@@H]2N(C)CC[C@]2(c2ccc(OC)c(OC)c2)CC1")
87.0
>>> test_value("CCCC(C)C(=O)OC1=C[C@@H]2N(C)CC[C@]2(c2ccc(OC)c(OC)c2)CC1 (some centres unmarked)")
2.1
>>> test_value("CCC(C)C(=O)OC1=C[C@@H]2N(C)CC[C@]2(c2ccc(OC)c(OC)c2)CC1 (some centres unmarked)")
4.0
>>> test_value("COCCCCC(=O)OC1=C[C@@H]2N(C)CC[C@]2(c2ccc(OC)c(OC)c2)CC1")
7.6
>>> test_value("CCC(C)(C)C(=O)OC1=C[C@@H]2N(C)CC[C@]2(c2ccc(OC)c(OC)c2)CC1")
69.1
>>> test_value("COc1ccc([C@@]23CCC(OC(=O)CC(C)(C)C)=C[C@@H]2N(C)CC3)cc1OC")
62.8
>>> test_value("COc1ccc([C@@]23CCC(OC(=O)CCC(C)C)=C[C@@H]2N(C)CC3)cc1OC")
0.5
>>> test_value("COc1ccc([C@@]23CCC(OC(=O)c4ccc(C(C)C)cc4)=C[C@@H]2N(C)CC3)cc1OC")
90.7
>>> test_value("COc1ccc([C@@]23CCC(OC(=O)CCN)=C[C@@H]2N(C)CC3)cc1OC")
0.1

---

# test_name: Plasma Stability Assay of Example A3, human plasma
# condition_summary: % of prodrug compound remaining, 37° C., 60 min
observable: Human Plasma Prodrug (%)

>>> test_value("C=C(C)C(=O)OC1=C[C@@H]2N(C)CC[C@]2(c2ccc(OC)c(OC)c2)CC1 [Compound 315]")
0.5
>>> test_value("COc1ccc([C@@]23CCC(OC(=O)c4ccc(C(C)C)cc4)=C[C@@H]2N(C)CC3)cc1OC [Compound 371]")
87
>>> test_value("COc1ccc([C@@]23CCC(OC(=O)c4cccc(N(C)C)c4)=C[C@@H]2N(C)CC3)cc1OC [Compound 307]")
83.0
>>> test_value("COc1ccc([C@@]23CCC(OC(=O)c4cccc(C)c4)=C[C@@H]2N(C)CC3)cc1OC [Compound 374]")
84

---

# test_name: Hydrolysis Assay of Example A2, Condition 1 (SGF with pepsin, pH 1.5, 37° C.)
# Assay type: physicochemical
# condition_summary: SGF with pepsin pH 1.5, 37° C., 0.5 mM; time 5 min
observable: Condition 1 Conversion (%)

>>> test_value("C=CC1OC2(CC[C@@]3(c4ccc(OC)c(OC)c4)CCN(C)[C@H]3C2)OC1C=C (stereo partly drawn)")
0
>>> test_value("COc1ccc([C@@]23CCC(OC(=O)c4ccc(C(F)(F)F)cc4)=C[C@@H]2N(C)CC3)cc1OC")
0
>>> test_value("COc1ccc([C@]23CCN(C)[C@H]2CC2(CC3)OCC(c3ccncc3)O2)cc1OC (stereo partly drawn)")
0

---

# test_name: Plasma Stability Assay of Example A3, mouse plasma
# condition_summary: % of prodrug compound remaining, 37° C., 120 min
So basically, if Mouse Plasma Prodrug (%) comes in under 2% it's Fulfilled, and if it's 2% or more it's Not fulfilled.

>>> label_class("COc1ccc([C@@]23CCC(OC(=O)c4cccc(C)c4C)=C[C@@H]2N(C)CC3)cc1OC")
"Not fulfilled"
>>> label_class("COc1ccc([C@@]23CCC(OC(=O)C(c4ccccc4)c4ccccc4)=C[C@@H]2N(C)CC3)cc1OC")
"Fulfilled"
>>> label_class("COc1ccc([C@@]23CCC(OC(=O)C(C)(C)C)=C[C@@H]2N(C)CC3)cc1OC")
"Fulfilled"
>>> label_class("COc1ccc([C@@]23CCC(OC(=O)c4ccc(N(C)C)cc4)=C[C@@H]2N(C)CC3)cc1OC")
"Fulfilled"
>>> label_class("COc1ccc([C@@]23CCC(OC(=O)C4CC4)=C[C@@H]2N(C)CC3)cc1OC")
"Not fulfilled"
>>> label_class("COc1ccc([C@@]23CCC(OC(=O)c4ccc(C(C)C)cc4)=C[C@@H]2N(C)CC3)cc1OC")
"Fulfilled"

---

# test_name: Plasma Stability Assay of Example A3, mouse plasma
# condition_summary: % of prodrug compound remaining, 37° C., 30 min
The following ranges of Mouse Plasma Prodrug (%) define the classes used here: low range (below 0.7%), mid range (0.7% to below 4%), high range (4% or more)

>>> label_class("COc1ccc([C@@]23CCC(OC(=O)c4ccc(C#N)cc4)=C[C@@H]2N(C)CC3)cc1OC")
"high range"
>>> label_class("COc1ccc([C@@]23CCC(OC(=O)c4c(C)cccc4C)=C[C@@H]2N(C)CC3)cc1OC")
"high range"
>>> label_class("COc1ccc([C@@]23CCC(OC(=O)c4cccc(C)c4C)=C[C@@H]2N(C)CC3)cc1OC")
"high range"
>>> label_class("C=C(C)C(=O)OC1=C[C@@H]2N(C)CC[C@]2(c2ccc(OC)c(OC)c2)CC1")
"mid range"
>>> label_class("COc1ccc([C@@]23CCC(OC(=O)C4CC4)=C[C@@H]2N(C)CC3)cc1OC")
"mid range"
>>> label_class("COc1ccc([C@@]23CCC(OC(=O)c4ccc(C(C)C)cc4)=C[C@@H]2N(C)CC3)cc1OC")
"low range"
>>> label_class("COc1ccc([C@@]23CCC(OC(=O)c4cccc(C(C)(C)C)c4)=C[C@@H]2N(C)CC3)cc1OC")
"mid range"
>>> label_class("COc1ccc([C@@]23CCC(OC(=O)c4ccc(F)cc4)=C[C@@H]2N(C)CC3)cc1OC")
"low range"
>>> label_class("COc1ccc([C@@]23CCC(OC(=O)c4ccc(C(F)(F)F)cc4)=C[C@@H]2N(C)CC3)cc1OC")
"low range"
>>> label_class("COc1ccc([C@@]23CCC(OC(=O)c4cccc(N(C)C)c4)=C[C@@H]2N(C)CC3)cc1OC")
"mid range"
